Taken from patent US20250277029A1.

systemName: T1, GFP-fused huCB1-SMALP (human CB1 in styrene maleic acid lipoparticles) (human, UniProt P21554 1-472)
T1 construct: Prepared as in Luna V. et al. 2018; also called huCB1-GFP-SMALP; wtCB1-SMALP; not shown: GFP fusion
T1 sequence (P21554 whole entry, the tested form may be a part): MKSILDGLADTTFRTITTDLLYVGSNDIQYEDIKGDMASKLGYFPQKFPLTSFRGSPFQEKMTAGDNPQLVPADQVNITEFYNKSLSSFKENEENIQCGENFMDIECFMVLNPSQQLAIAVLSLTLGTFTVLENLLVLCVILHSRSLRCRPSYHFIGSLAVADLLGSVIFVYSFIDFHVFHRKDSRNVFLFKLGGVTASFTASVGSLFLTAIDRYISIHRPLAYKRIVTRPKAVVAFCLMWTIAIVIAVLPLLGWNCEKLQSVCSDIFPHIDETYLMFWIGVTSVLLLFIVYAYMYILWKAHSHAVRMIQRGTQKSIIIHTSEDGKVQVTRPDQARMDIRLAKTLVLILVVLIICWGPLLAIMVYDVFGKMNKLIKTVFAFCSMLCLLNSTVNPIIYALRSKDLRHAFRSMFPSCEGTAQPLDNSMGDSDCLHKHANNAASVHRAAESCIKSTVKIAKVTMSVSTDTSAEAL
methodSummary: flow cytometry, yeast-displayed IgG, GFP MFI
property: 100 nM huCB1-GFP-SMALP binding (normalized to 10D10N35Y)

binder	assayResult
LIBC528169-1 (antibody, V domains shown, also called LIBC528169-1 + VK1 germline fix(es)) VH: QVQLQESGPGLVKPSQTLSLTCTVSGGSIRRGGDYWSWIRQHPGKGLEWIGHIYQSGSTKYNPSFEDRATISVNTYKNQFSLKLSSVTAADTAVYYCARDYDILTGYSYYYYGMDVWGQGTTVTVSS VL: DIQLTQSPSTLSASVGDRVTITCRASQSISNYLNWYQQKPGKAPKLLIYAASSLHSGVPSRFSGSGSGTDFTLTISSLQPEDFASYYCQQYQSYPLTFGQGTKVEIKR	4.58 fold
LIBC527879-1 (antibody, V domains shown) VH: QVQLQESGPGLVKPSQTLSLTCTVSGGSIRRGGDYWGWIRQHPGKGLEWIGHIYQSGSTNYNPKLKSRATISVDTYKNQFSLKLSSVTAADTAVYYCARDYDIFTGYSYYYYGMDVWGQGTTVTVSS VL: DIQLTQSPSSLSASVGDRVTITCRASQSIISYLNWYQQKPGKAPKLLIYAASSLRSGVPSRFSGSGSGTDFTLTISSLQPEDFATYYCQQYSNYPLTFGGGTRVEIKR	3.24 fold
LIBC527997-1 (antibody, IgG1, V domains shown) VH: QVQLQESGPGLVKPSQTLSLTCTVSGGSIRRGGDYWAWIRQHPGKGLEWIGHIYQTGSTNYNPRFKGRATISVNTYKNQFSLKLSSVTAADTAVYYCARNYDTLTGYSYYYYGMDVWGQGTTVTVSS VL: DIQMTQSPSSLSASVGDRVTITCRASQSISNYLNWYQQKPGKAPKLLIYAASSLHSGVPSRFSGSGSGTDFTLTISSLQPEDFASYYCQQYQSYPLTFGQGTKVEIKR	6.63 fold
